Molecular target: NNMT (hNNMT) (Homo sapiens, UniProt P40261)
Construct: wild type, N-terminal His6 tag kept (no cleavage described), E. coli, construct 31248 Da
Sequence (P40261 whole entry): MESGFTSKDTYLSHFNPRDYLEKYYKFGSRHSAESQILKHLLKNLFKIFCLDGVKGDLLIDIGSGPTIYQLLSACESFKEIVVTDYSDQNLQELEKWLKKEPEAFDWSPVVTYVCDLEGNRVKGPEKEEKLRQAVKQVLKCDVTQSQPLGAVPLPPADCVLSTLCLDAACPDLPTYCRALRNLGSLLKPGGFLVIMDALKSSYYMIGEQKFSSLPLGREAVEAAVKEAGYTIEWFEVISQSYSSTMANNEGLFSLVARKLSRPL
Set-up: Intact protein LC/MS covalent labelling, fragments in pools of five, 200 uM each, 4 °C
Settings: 24 h, 4 °C, pool of five; 200 µM; covalent
Protocol: Incubations were performed at 200 μM for each compound and 2 μM of protein (10 μM for BSA) for 24 h at 4 °C with moderate shaking. […] Following incubation, we used intact protein [compound left out] chromatography/mass spectrometry (LC/MS) to identify the fragments and quantify their labeling (Figure 3A). […]
metric: NNMT

Worked cases, NNMT given:
                                   molecule  endpoint_result
0             COC(=O)c1c(NC(=O)CCl)sc(C)c1C             0.18
1                  CN(Cc1cc(Br)cs1)C(=O)CCl                0
2  C=CC(=O)NC1CCCN(c2cc(C)nn2C)C1=O (stereo not shown)                0

Prompt: GET /values?readout=NNMT&system=NNMT (hNNMT) (Homo sapiens, UniProt P40261)&item= O=C(CCl)N(c1ccccc1)C1C=CS(=O)(=O)C1 (stereo not shown)
Completion: 0.28
